test system: B. subtilis 168; assay: fitness (endpoint OD595 vs no drug) (fraction); higher = more growth; settings: first compound 0.125 µg/mL; partner 0.125 µg/mL; one replicate;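 further: OD595 on entry to stationary phase over no-drug wells; at most 1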
REPORTED PROPERTY: fitness
Respond with the number and no other words.

Take a look at these entries with their results.
COMPOUND: CO[C@@H]1[C@@H](OC(N)=O)[C@@H](O)[C@H](Oc2ccc3c(O)c(NC(=O)c4ccc(O)c(CC=C(C)C)c4)c(=O)oc3c2C)OC1(C)C [Novobiocin] + CC1=C\[C@@H](O)CC(=O)Cc2nc(co2)C(=O)N2CCC=C2C(=O)O[C@H](C(C)C)[C@H](C)/C=C/C(=O)NC\C=C\1 [Virginiamycin M1]
fitness: 0.973
//
COMPOUND: CC(=O)NC[C@H]1CN(c2ccc(N3CCOCC3)c(F)c2)C(=O)O1 [Linezolid] + CO[C@@H]1[C@@H](OC(N)=O)[C@@H](O)[C@H](Oc2ccc3c(O)c(NC(=O)c4ccc(O)c(CC=C(C)C)c4)c(=O)oc3c2C)OC1(C)C [Novobiocin]
fitness: 0.846

# context switch: different compound, same fitness
Look up fitness for this compound: CO[C@@H]1[C@@H](OC(N)=O)[C@@H](O)[C@H](Oc2ccc3c(O)c(NC(=O)c4ccc(O)c(CC=C(C)C)c4)c(=O)oc3c2C)OC1(C)C [Novobiocin] + COc1cc(Cc2cnc(N)nc2N)cc(OC)c1OC [Trimethoprim]
0.835

---

Reported Bliss interaction score is given for each of the following compounds.
test system: S. aureus DSM 20231; assay: Bliss interaction score (quartile over a dose matrix) (fitness difference); higher = more antagonism (negative = synergy);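 further: first quartile when negative (synergy) and third quartile when positive (antagonism)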
Just the number, please.

COMPOUND: CO[C@@]12[C@H](COC(N)=O)C3=C(C(=O)C(C)=C(N)C3=O)N1C[C@@H]1N[C@@H]12 [MitomycinC] + CCCSc1nc(N[C@@H]2C[C@H]2c2ccc(F)c(F)c2)c2nnn([C@@H]3C[C@H](OCCO)[C@@H](O)[C@H]3O)c2n1 [Ticagrelor]
Bliss interaction score: -0.392
//
COMPOUND: CO[C@H]1/C=C/O[C@@]2(C)Oc3c(C)c(O)c4c(O)c(c(/C=N/N5CCN(C)CC5)c(O)c4c3C2=O)NC(=O)/C(C)=C\C=C\[C@H](C)[C@H](O)[C@@H](C)[C@@H](O)[C@@H](C)[C@H](OC(C)=O)[C@@H]1C [Rifampicin] + CN[C@@H]1[C@H](O)[C@H](NC)[C@H]2O[C@@]3(O)C(=O)C[C@@H](C)O[C@H]3O[C@@H]2[C@H]1O [Spectinomycin]
Bliss interaction score: -0.0309
//
COMPOUND: CC(=O)NC[C@H]1CN(c2ccc(N3CCOCC3)c(F)c2)C(=O)O1 [Linezolid] + Oc1cc(Cl)ccc1Oc1ccc(Cl)cc1Cl [Triclosan]
Bliss interaction score: -0.0777

Next compound, Bliss interaction score to be filled in.
Field request: Bliss interaction score | item: CC[C@H]1OC(=O)[C@H](C)[C@@H](O[C@H]2C[C@@](C)(OC)[C@@H](O)[C@H](C)O2)[C@H](C)[C@@H](O[C@@H]2O[C@H](C)C[C@H](N(C)C)[C@H]2O)[C@](C)(O)C[C@@H](C)C(=O)[C@H](C)[C@@H](O)[C@]1(C)O [Erythromycin] + Cc1ncc([N+](=O)[O-])n1CCO [Metronidazole]
-0.0288

FYI, the data here is from the supplement of paper PMC10627819.
